Entry source: paper PMC8041284

# system.under.test: BTK (Homo sapiens)
# protocol.description: biochemical
# assay.conditions: read-out: BTK inhibition (%), 0.75 uM BTK, […] probe 3l, 15 min preincubation
quantity.kind: inhibition at 10 µM
Answer with the number, then the unit.

Incoming: Entry CC(C)[C@H](C(=O)Nc1ccc(C(=O)NO)cc1)c1ccccc1 : reported inhibition at 10 µM = ?
Outgoing: 17.1%

Incoming: Entry Cc1cc(=O)c(C(=O)N[C@@H](C(=O)N[C@@H]2C(=O)N3C(C(=O)O)=C(CSc4nnnn4C)CS[C@H]23)c2ccc(O)cc2)c[nH]1 : reported inhibition at 10 µM = ?
Outgoing: 23.2%

Incoming: Entry OC[C@H]1O[C@H](O[C@H]2[C@H](O)[C@@H](O)C(O)O[C@@H]2CO)[C@H](O)[C@@H](O)[C@@H]1O (stereo partly shown) : reported inhibition at 10 µM = ?
Outgoing: 0%

Incoming: Entry CCOC(=O)c1ccc(C#Cc2ccc3c(c2)C(C)(C)CCS3)nc1 : reported inhibition at 10 µM = ?
Outgoing: -16.6%

* * *

# system.under.test: UniProt:Q06187
# protocol.description: biochemical
# assay.conditions: read-out: BTK inhibition (%), 0.75 uM BTK, […] probe 3l, 15 min preincubation
inhibition at 10 µM: recorded values
Write the answer as a number in %, unit excluded.

Would you please look over these solved cases?
| molecule | quantity.kind | measurement.units | experimental.value |
| --- | --- | --- | --- |
| COc1cc(-n2c(=S)[nH]c3ccccc3c2=O)c(Cl)cc1Cl | inhibition at 10 µM | % | 29.3 |
| COc1cc2c(N3CCN(C(=O)Nc4ccc(OC(C)C)cc4)CC3)ncnc2cc1OCCCN1CCCCC1 | inhibition at 10 µM | % | -17 |
| CC(C)(C)c1nc(-c2cccc(NS(=O)(=O)c3c(F)cccc3F)c2F)c(-c2ccnc(N)n2)s1 | inhibition at 10 µM | % | 39.3 |
| CC(=O)O[C@H]1C[C@H](O[C@H]2[C@@H](O)C[C@H](O[C@H]3[C@@H](O)C[C@H](O[C@H]4CC[C@@]5(C)[C@H](CC[C@@H]6[C@@H]5C[C@@H](O)[C@]5(C)[C@@H](C7=CC(=O)OC7)CC[C@]65O)C4)O[C@@H]3C)O[C@@H]2C)O[C@H](C)[C@H]1O[C@@H]1O[C@H](CO)[C@@H](O)[C@H](O)[C@H]1O | inhibition at 10 µM | % | -4.6 |
| C[C@@H]([C@H](C)O)[C@H](N)C(=O)O | inhibition at 10 µM | % | -12.4 |

Please find the next molecule below.
Incoming: Entry CC(NC(=O)c1ccccc1N=Cc1c(O)ccc2ccccc12)c1ccccc1 (stereo not drawn) : reported inhibition at 10 µM = ?
Outgoing: 9

* * *

# system.under.test: wild-type BTK (Homo sapiens)
# Sequence (Q06187 whole entry): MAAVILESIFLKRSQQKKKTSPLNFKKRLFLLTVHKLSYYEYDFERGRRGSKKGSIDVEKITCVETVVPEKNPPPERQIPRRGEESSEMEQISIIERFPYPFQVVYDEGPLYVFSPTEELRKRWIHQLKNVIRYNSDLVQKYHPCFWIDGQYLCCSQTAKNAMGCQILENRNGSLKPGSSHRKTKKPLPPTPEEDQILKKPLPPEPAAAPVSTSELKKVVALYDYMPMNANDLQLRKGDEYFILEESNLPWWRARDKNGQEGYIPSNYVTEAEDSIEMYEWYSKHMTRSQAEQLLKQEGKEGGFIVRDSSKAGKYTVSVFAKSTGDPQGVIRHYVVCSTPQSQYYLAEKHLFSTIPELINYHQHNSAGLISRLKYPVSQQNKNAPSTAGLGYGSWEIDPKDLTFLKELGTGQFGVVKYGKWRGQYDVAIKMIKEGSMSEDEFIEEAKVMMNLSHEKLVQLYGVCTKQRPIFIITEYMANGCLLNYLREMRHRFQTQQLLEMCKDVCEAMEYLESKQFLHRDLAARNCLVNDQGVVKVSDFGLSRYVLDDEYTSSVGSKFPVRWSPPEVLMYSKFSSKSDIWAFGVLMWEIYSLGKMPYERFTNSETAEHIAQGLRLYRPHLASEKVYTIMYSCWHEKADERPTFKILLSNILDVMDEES
# protocol.description: In vitro kinase activity assay (Nanosyn)
quantity.kind: IC50

Incoming: Entry C=C(CN(C)c1ccccc1)C(=O)N1CCC[C@@H](n2nc(-c3ccc(Oc4ccccc4)cc3)c3c(N)ncnc32)C1 : reported IC50 = ?
Outgoing: 5.6 nM

* * *

# system.under.test: UniProt Q06187
# protocol.description: biochemical
# assay.conditions: read-out: BTK inhibition (%), 0.75 uM BTK, […] probe 3l, 15 min preincubation
quantity.kind: inhibition at 10 µM (%)
Write the answer as a number in %, unit excluded.

| compound | inhibition at 10 µM [%] |
| --- | --- |
| CCN(CC)CCOc1ccc(C(=C(Cl)c2ccccc2)c2ccccc2)cc1 | 13.2 |

Incoming: Record Cc1[nH]c(/C=C2\C(=O)Nc3ccc(S(=O)(=O)Cc4c(Cl)cccc4Cl)cc32)c(C)c1C(=O)N1CCC[C@@H]1CN1CCCC1 : what is its inhibition at 10 µM with UniProt Q06187?
Outgoing: 35.2

Incoming: Record Nc1ccc(-c2ccc3ncc4ccc(=O)n(-c5cccc(C(F)(F)F)c5)c4c3c2)cn1 : what is its inhibition at 10 µM with UniProt Q06187?
Outgoing: 9.7

Incoming: Record OC(CN1CCN(c2cccc(Cl)c2)CC1)C(c1ccccc1)c1ccccc1 (stereo not drawn) : what is its inhibition at 10 µM with UniProt Q06187?
Outgoing: 37.4

Incoming: Record CCCCCCCCCCCC1=C(O)C(=O)C=C(O)C1=O : what is its inhibition at 10 µM with UniProt Q06187?
Outgoing: 42.5

Incoming: Record CCN1CCN(Cc2ccc(-c3cc4c(N[C@H](C)c5ccccc5)ncnc4[nH]3)cc2)CC1 : what is its inhibition at 10 µM with UniProt Q06187?
Outgoing: 41.4

Incoming: Record O[C@@H]1[C@H](O)[C@@H](O)CO[C@H]1O : what is its inhibition at 10 µM with UniProt Q06187?
Outgoing: 0.8

Incoming: Record COc1cc2c(cc1OC)CN(C(=O)/C=C/c1c(-c3ccccc3)n(C)c3ncccc13)CC2 : what is its inhibition at 10 µM with UniProt Q06187?
Outgoing: 37.8

Incoming: Record NN1CC(=O)NC1=O : what is its inhibition at 10 µM with UniProt Q06187?
Outgoing: -7.8

* * *

inhibition at 10 µM: recorded values
# system.under.test: BTK (Homo sapiens, UniProt Q06187)
# Sequence (Q06187 402-655 limits assumed): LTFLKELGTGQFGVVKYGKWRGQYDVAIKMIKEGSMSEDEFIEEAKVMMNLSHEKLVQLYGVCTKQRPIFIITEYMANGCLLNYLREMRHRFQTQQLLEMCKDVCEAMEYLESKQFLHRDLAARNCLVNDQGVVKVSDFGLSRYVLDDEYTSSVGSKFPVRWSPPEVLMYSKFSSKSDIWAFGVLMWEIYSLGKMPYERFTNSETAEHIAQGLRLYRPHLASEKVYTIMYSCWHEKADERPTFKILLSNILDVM
# protocol.description: biochemical
# assay.conditions: read-out: BTK inhibition (%), 0.75 uM BTK, […] probe 3l, 15 min preincubation
Write the answer as a number in %, unit excluded.

Would you please look over these solved cases?
| compound | system.under.test | inhibition at 10 µM (%) |
| --- | --- | --- |
| C=C1C[C@@]23CC[C@H]4[C@@](C)(CCC[C@@]4(C)C(=O)O[C@@H]4O[C@H](CO)[C@@H](O)[C@H](O)[C@H]4O)[C@@H]2CC[C@]1(O[C@@H]1O[C@H](CO)[C@@H](O)[C@H](O[C@@H]2O[C@H](CO)[C@@H](O)[C@H](O)[C@H]2O)[C@H]1O[C@@H]1O[C@H](CO)[C@@H](O)[C@H](O)[C@H]1O)C3 [PCM-0215017] | BTK (Homo sapiens, UniProt Q06187) | 0.8 |
| c1cn2cc(-c3ccc4cn[nH]c4c3)nc(Nc3ccc(N4CCOCC4)cc3)c2n1 [PCM-0095758] | BTK (Homo sapiens, UniProt Q06187) | 33.8 |

Please find the next compound below.
Incoming: Entry O=C(O)c1ccc(-n2nc(-c3ccccc3O)nc2-c2ccccc2O)cc1 [PCM-0095168] : reported inhibition at 10 µM = ?
Outgoing: 36.6

* * *

# system.under.test: BTK (Homo sapiens, UniProt Q06187)
# protocol.description: biochemical
# assay.conditions: read-out: BTK inhibition (%), 0.75 uM BTK, […] probe 3l, 15 min preincubation
quantity.kind: inhibition at 10 µM (%)
Write the answer as a number in %, unit excluded.

Would you please look over these solved cases?
| smiles.code | inhibition at 10 µM, % |
| --- | --- |
| N#Cc1ccc(-c2c(-c3ncn[nH]3)sc(N3CCOCC3)c2C#N)c(F)c1 | 19.3 |
| CC(=O)O[C@H]1C(=O)[C@@]2(C)[C@H]([C@H](OC(=O)c3ccccc3)[C@]3(O)C[C@H](O)C(C)=C1C3(C)C)[C@]1(OC(C)=O)CO[C@@H]1C[C@@H]2O | -17.1 |
| Cn1ncc(Cl)c1-c1cc(C(=O)N[C@H](CN)Cc2cccc(F)c2)sc1Cl | -40 |
| N[C@@H]1CONC1=O | -11.9 |
| O=c1c(-c2ccc(O)cc2)coc2c([C@@H]3O[C@H](CO)[C@@H](O)[C@H](O)[C@H]3O)c(O)ccc12 | -0.8 |

Incoming: Entry NC(=O)NO : reported inhibition at 10 µM = ?
Outgoing: 10.9

Incoming: Entry N#CC(=C(N)Sc1ccc(N)cc1)c1ccccc1C(F)(F)F : reported inhibition at 10 µM = ?
Outgoing: -28.3

Incoming: Entry Cn1cnc2c(F)c(Nc3ccc(Br)cc3Cl)c(C(=O)NOCCO)cc21 : reported inhibition at 10 µM = ?
Outgoing: -6.9

Incoming: Entry COc1ccc(C(=O)N2CCCC2=O)cc1 : reported inhibition at 10 µM = ?
Outgoing: -4.7

Incoming: Entry CC(C)=CCC[C@](C)(O)[C@H]1CC[C@]2(C)[C@@H]1[C@H](O)C[C@@H]1[C@@]3(C)CC[C@H](O)C(C)(C)[C@@H]3[C@@H](O[C@@H]3O[C@H](CO)[C@@H](O)[C@H](O)[C@H]3O[C@@H]3O[C@@H](C)[C@H](O)[C@@H](O)[C@H]3O)C[C@]12C : reported inhibition at 10 µM = ?
Outgoing: -5.4

Incoming: Entry C#C[C@]1(OC(C)=O)CC[C@H]2[C@@H]3CCC4=C[C@@H](OC(C)=O)CC[C@@H]4[C@H]3CC[C@@]21C : reported inhibition at 10 µM = ?
Outgoing: 2.3

Incoming: Entry C=C(C)[C@@H]1CC[C@]2(C(=O)O[C@@H]3O[C@H](CO[C@@H]4O[C@H](CO)[C@@H](O[C@@H]5O[C@@H](C)[C@H](O)[C@@H](O)[C@H]5O)[C@H](O)[C@H]4O)[C@@H](O)[C@H](O)[C@H]3O)CC[C@]3(C)[C@H](CC[C@@H]4[C@@]5(C)CC[C@H](O[C@@H]6OC[C@H](O)[C@H](O)[C@H]6O[C@@H]6O[C@@H](C)[C@H](O)[C@@H](O)[C@H]6O)[C@@](C)(CO)[C@@H]5CC[C@]43C)[C@@H]12 : reported inhibition at 10 µM = ?
Outgoing: -42.6

Incoming: Entry CCCCc1oc2ccc(NS(C)(=O)=O)cc2c1C(=O)c1ccc(OCCCN(CCCC)CCCC)cc1 : reported inhibition at 10 µM = ?
Outgoing: 62.3
